Numbers sourced from patent US20220025029A1.

- system_under_test: T1, natural Fel d1 (Indoor Biotech, #NA-FD1-2) (cat, UniProt P30438 23-92; P30440 18-109)
- T1 construct: Bought natural heterodimeric glycoprotein, chains linked by disulfide bonds; also called nFel d1; nFel d 1
- method_notes: Octet BLI sandwich; nFel d1 pre-complexed with captured mAb-1 H4H1238N (competitor); self-competition value subtracted
Each record here notes measured Response of mAb-2 Binding to nFel d1 pre-complexed with mAb-1.
Express your answer in nm, writing the number without its unit.

H4H1232N (antibody, human IgG4, V domains shown, human IgG4 Fc (H4H prefix)) VH: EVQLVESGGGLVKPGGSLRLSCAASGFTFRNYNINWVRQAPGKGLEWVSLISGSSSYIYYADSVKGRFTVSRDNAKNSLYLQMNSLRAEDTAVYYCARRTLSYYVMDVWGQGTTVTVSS VL: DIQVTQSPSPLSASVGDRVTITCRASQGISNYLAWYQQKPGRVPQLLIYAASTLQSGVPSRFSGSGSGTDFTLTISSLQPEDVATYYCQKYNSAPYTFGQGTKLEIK | 0.76
H4H2645P (antibody, human IgG4, V domains shown, human IgG4 Fc (H4H prefix)) VH: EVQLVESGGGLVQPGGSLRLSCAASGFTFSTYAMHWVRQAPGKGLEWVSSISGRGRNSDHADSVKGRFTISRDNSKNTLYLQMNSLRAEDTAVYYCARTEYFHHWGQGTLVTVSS VL: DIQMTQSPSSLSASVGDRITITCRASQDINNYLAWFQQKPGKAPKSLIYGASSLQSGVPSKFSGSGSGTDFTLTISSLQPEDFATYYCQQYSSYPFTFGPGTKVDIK | 0.62

Now for the binder whose Response of mAb-2 Binding to nFel d1 pre-complexed with mAb-1 we want.
Input: # lookup: Response of mAb-2 Binding to nFel d1 pre-complexed with mAb-1 of H4H1616N (antibody, human IgG4, V domains shown, human IgG4 Fc (H4H prefix)) VH: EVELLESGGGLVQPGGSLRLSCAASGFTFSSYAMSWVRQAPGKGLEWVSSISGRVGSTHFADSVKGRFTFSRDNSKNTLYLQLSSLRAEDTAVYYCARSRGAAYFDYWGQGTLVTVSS VL: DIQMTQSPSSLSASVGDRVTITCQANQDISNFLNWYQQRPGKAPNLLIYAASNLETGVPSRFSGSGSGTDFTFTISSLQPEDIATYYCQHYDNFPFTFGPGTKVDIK
Output: 0.43
